# assay.system: Serine/threonine-protein kinase MARK1 (Homo sapiens) (UniProt Q9P0L2)
# Sequence (Q9P0L2 whole entry, looked up): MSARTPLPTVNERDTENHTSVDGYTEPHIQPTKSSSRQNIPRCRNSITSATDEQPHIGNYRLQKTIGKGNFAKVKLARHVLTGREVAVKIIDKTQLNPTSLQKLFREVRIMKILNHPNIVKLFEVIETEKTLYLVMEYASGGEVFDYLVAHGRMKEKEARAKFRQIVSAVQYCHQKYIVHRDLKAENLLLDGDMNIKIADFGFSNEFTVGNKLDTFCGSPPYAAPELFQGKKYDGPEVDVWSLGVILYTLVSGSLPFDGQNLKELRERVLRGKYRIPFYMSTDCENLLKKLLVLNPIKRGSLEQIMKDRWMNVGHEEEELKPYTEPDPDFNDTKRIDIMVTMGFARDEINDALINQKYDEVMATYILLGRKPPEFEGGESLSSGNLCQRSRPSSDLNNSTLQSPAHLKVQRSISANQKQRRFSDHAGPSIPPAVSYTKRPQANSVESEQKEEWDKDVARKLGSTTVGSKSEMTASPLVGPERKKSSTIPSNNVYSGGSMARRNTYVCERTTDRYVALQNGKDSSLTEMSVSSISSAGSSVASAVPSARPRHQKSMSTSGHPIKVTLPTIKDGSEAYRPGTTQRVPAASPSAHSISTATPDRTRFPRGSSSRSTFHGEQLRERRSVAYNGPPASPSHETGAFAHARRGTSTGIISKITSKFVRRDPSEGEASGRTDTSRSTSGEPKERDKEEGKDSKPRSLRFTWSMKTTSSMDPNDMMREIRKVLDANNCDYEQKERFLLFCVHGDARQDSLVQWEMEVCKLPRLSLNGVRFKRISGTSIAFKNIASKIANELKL
# experimental.parameters: at 0.1 µM
# Description: GSK_PKIS: MARK1 mean inhibition at 0.1 uM [Nanosyn]
measure: inhibition (%)

{"columns": ["molecular.string", "experimental.value"],
 "data": [
  ["COc1cc(Nc2nccc(Nc3ccc4c(C)n[nH]c4c3)n2)cc(OC)c1OC", 2.59],
  ["CS(=O)(=O)CCNCc1coc(-c2ccc3ncnc(Nc4ccc(OCc5ccccc5)cc4)c3c2)c1", 2.05],
  ["Nc1ncc(-c2cccc(S(N)(=O)=O)c2)c2scc(-c3ccc(F)c(Cl)c3)c12", 3.57],
  ["COC(=O)Nc1nc2ccc(S(=O)(=O)c3ccc(NC(=O)Nc4cc(C(F)(F)F)ccc4F)cc3)cc2[nH]1", 2.26],
  ["CC(C)(CO)CNC(=O)c1ccc2c(c1)/C(=N/Nc1ccc(S(N)(=O)=O)cc1)C(=O)N2", 10.3]
]}

---

# assay.system: Protein kinase C theta type (Homo sapiens) (UniProt Q04759);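 further: reported figure is the mean percent inhibition of PKC-theta, from the GSK PKIS screen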
# Sequence (Q04759 whole entry, looked up): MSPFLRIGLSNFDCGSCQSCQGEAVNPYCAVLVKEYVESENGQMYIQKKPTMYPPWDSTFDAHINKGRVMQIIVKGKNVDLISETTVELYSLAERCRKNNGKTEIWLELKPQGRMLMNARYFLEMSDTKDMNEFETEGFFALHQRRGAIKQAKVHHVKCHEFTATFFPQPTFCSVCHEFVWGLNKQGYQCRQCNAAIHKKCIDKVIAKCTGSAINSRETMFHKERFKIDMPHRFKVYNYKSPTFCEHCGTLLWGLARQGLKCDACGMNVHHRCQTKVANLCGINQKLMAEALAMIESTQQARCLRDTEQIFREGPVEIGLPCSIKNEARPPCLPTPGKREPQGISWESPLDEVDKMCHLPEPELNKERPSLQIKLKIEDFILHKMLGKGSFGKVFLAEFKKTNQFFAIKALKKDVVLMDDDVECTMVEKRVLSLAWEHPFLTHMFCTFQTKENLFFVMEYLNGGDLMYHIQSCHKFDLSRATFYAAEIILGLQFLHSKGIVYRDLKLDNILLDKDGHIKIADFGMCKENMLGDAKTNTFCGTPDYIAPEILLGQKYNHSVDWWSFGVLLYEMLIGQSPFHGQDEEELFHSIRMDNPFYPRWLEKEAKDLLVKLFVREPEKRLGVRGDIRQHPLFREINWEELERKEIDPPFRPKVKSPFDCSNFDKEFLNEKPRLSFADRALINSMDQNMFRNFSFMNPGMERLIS
# experimental.parameters: at 0.1 µM
Documented inhibition across a set of compounds
measure: inhibition (%)

{"columns": ["molecular.string", "result.unit", "experimental.value"],
 "data": [
  ["Fc1ccc(-c2nn3ccccc3c2-c2ccncc2)cc1", "%", 0.74],
  ["Fc1ccc(-c2cc(-c3c[nH]nc3-c3ccccn3)ccn2)cc1", "%", 3.15],
  ["[O-][S+]1CCN(Cc2ccc(-c3ccc4ncnc(Nc5ccc(OCc6cccc(F)c6)c(Cl)c5)c4c3)o2)CC1", "%", 2.17],
  ["CC(=O)NCc1cccc(C#Cc2cncnc2Nc2ccc(OCc3cccc(F)c3)c(Cl)c2)c1", "%", 0.15],
  ["N#Cc1c(NC(=O)CN2CCOCC2)sc2c1CCCC2", "%", 3.07],
  ["COc1cc(/C=N/Nc2ncnc3[nH]ncc23)ccc1O", "%", 2.3],
  ["Cc1ccc(O)cc1Nc1ccnc2cc(-c3ccccn3)ccc12", "%", 2.6],
  ["CC(=O)Nc1cccc(C#Cc2cncnc2Nc2ccc(OCc3cccc(F)c3)c(Cl)c2)c1", "%", 0.62],
  ["CNC(=O)c1cccc(C#Cc2cncnc2Nc2ccc(OCc3cccc(F)c3)c(Cl)c2)c1", "%", 0.09],
  ["O=C(O[C@H]1CN[C@H](C#Cc2cc3ncnc(Nc4ccc(Cc5ccccc5)cc4)c3s2)C1)N1CCOCC1", "%", 1.84],
  ["CC(C)COC(=O)c1ccc2c(c1)/C(=C/Nc1ccc(S(N)(=O)=O)cc1)C(=O)N2", "%", 2.36],
  ["CS(=O)(=O)CCNCc1coc(-c2ccc3ncnc(Nc4ccc(OCc5ccccc5)cc4)c3c2)c1", "%", 1.31],
  ["COC(=O)c1sc(-n2cnc3cc(OC)c(OC)cc32)cc1OCc1ccccc1C(F)(F)F", "%", 1.11],
  ["COc1ccc(CNC(=O)c2ccc(-c3cc(-c4nnc(C)o4)ccc3C)cc2)cc1", "%", 2.86],
  ["COC(=O)Nc1nc2ccc(Oc3ccc(NC(=O)Nc4cccc(Cl)c4)cc3)cc2[nH]1", "%", 0.36],
  ["Fc1ccc(-c2nn3ncccc3c2-c2ccnc(Nc3ccc4c(c3)OCCO4)n2)cc1", "%", 1.22],
  ["NS(=O)(=O)c1ccc(Nc2ncc(-c3ccccc3)o2)cc1", "%", 1.68],
  ["CCc1nn2ncccc2c1-c1ccnc(NC2CC2)n1", "%", 0.97],
  ["COc1ccc2[nH]c3c4[nH]c5ccc(OC)cc5c4c4c(c3c2c1)C(=O)NC4=O", "%", 4.69],
  ["CN1CCC(n2cnc(-c3ccc(F)cc3)c2-c2ccnc(Nc3ccccc3)n2)CC1", "%", 1.16],
  ["Nc1nc(-c2ccc(F)cc2)c(-c2ccc3ncccc3n2)s1", "%", 1.69],
  ["COc1cc(Nc2nccc(Nc3ccc4c(C)n[nH]c4c3)n2)cc(OC)c1OC", "%", 1.17],
  ["CS(=O)(=O)CCNCc1ccc(-c2ccc3ncnc(Nc4ccc(OCc5ccccc5)c(C(F)(F)F)c4)c3c2)o1", "%", 1.99],
  ["CC(C)(CO)CNC(=O)c1ccc2c(c1)/C(=N/Nc1ccc(S(N)(=O)=O)cc1)C(=O)N2", "%", 0.56],
  ["CNC(=O)c1cncc(/C=C/c2ccccc2Cl)c1", "%", 1.22],
  ["COc1ccc(-c2cc3c(N)ncnc3o2)cc1", "%", -1.21],
  ["CCCN1CCC(c2ccc(Nc3nc(Nc4cc(F)ccc4C(N)=O)c4cc[nH]c4n3)c(OC)c2)CC1", "%", 2.2],
  ["Cc1cccc(Nc2ncc(-c3ccccc3)o2)c1", "%", 4.9],
  ["COc1cc2c(cc1Nc1nc(Nc3ccsc3C(N)=O)c3cc[nH]c3n1)N(C(=O)CN(C)C)CCC2(C)C", "%", 4.59],
  ["CCCN(CCS(C)(=O)=O)Cc1ccc(-c2ccc3ncnc(Nc4ccc(OCc5cccc(F)c5)c(Cl)c4)c3c2)o1", "%", 0.4],
  ["c1cc(-c2cnn3nc(N4CCOCC4)ccc23)nc(NC2CC2)n1", "%", 1.39],
  ["c1ccc(-c2nc3n(c2-c2ccc4c(c2)OCO4)CCC3)nc1", "%", 1.78],
  ["NS(=O)(=O)c1ccc(N/N=C2\\C(=O)Nc3ccc4ncccc4c32)cc1", "%", 2.1]
]}
